- experimentalTarget: T1, 4H3041-bN
- T1 chain: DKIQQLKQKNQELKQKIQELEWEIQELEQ
- test: two-hybrid library CCNG1;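 further: natural log of median RNA to DNA barcode read ratio; higher means stronger binding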
Respond with yes for interaction score values of 1 and above, no for values below.

Use the examples below as a reference point.
binder | cat
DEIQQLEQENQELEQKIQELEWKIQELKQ [4H166-bN] | yes
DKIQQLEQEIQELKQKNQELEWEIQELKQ [4H2162-bN] | yes
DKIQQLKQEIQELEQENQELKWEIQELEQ [4H2585-bN] | no
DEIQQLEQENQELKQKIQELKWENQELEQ [4H235-bN] | no
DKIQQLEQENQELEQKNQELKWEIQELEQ [4H2233-bN] | no

Proceed to the following item.
(Q) Does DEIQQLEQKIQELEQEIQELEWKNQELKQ [4H264-bN] have a reported interaction score of at least 1?
(A) yes

Source listed as paper PMC10397247.
